Where do these numbers come from? They come from patent US20130102595A1.

Assay endpoint: melting point

[
  {
    "Compound": "CNc1ccc(-c2nc(N3CCOCC3)c3sc(C(C)N(C)c4ncc(C(=O)NO)cn4)cc3n2)cn1 (stereo not shown)",
    "Meas value": "270 to 275 °C"
  },
  {
    "Compound": "CS(=O)(=O)N1CCN(Cc2cc3nc(-c4cccc5[nH]ncc45)nc(N4CCN(CCCCC(=O)NO)CC4)c3s2)CC1",
    "Meas value": "142 to 145 °C"
  },
  {
    "Compound": "O=C(NO)c1ccc(NCc2cc3nc(-c4cccc5[nH]ncc45)nc(N4CCOCC4)c3s2)nc1",
    "Meas value": "218 to 220 °C"
  },
  {
    "Compound": "CNc1ncc(-c2nc(N3CCOCC3)c3sc(NCCCCC(=O)NO)cc3n2)cn1",
    "Meas value": "206 to 210 °C"
  },
  {
    "Compound": "CN(Cc1cc2nc(-c3ccc(N)c(C#N)c3)nc(N3CCOCC3)c2s1)c1ncc(C(=O)NO)cn1",
    "Meas value": "237 to 240 °C"
  },
  {
    "Compound": "CCOc1ccc(-c2nc(N3CCOCC3)c3sc(CN(C)c4ncc(C(=O)NO)cn4)cc3n2)cn1",
    "Meas value": "162 to 165 °C"
  }
]

Continue with the next compound.
Request: Please list melting point recorded for the compound "CN(C)c1ccc(-c2nc(N3CCOCC3)c3sc(CN(C)c4ncc(C(=O)NO)cn4)cc3n2)cc1"
Response: 208 to 210 °C
